Consider compounds characterized by their pIC50 with Matrix metalloproteinase-9 (Rattus norvegicus, UniProt P50282).
Sequence (P50282 whole entry): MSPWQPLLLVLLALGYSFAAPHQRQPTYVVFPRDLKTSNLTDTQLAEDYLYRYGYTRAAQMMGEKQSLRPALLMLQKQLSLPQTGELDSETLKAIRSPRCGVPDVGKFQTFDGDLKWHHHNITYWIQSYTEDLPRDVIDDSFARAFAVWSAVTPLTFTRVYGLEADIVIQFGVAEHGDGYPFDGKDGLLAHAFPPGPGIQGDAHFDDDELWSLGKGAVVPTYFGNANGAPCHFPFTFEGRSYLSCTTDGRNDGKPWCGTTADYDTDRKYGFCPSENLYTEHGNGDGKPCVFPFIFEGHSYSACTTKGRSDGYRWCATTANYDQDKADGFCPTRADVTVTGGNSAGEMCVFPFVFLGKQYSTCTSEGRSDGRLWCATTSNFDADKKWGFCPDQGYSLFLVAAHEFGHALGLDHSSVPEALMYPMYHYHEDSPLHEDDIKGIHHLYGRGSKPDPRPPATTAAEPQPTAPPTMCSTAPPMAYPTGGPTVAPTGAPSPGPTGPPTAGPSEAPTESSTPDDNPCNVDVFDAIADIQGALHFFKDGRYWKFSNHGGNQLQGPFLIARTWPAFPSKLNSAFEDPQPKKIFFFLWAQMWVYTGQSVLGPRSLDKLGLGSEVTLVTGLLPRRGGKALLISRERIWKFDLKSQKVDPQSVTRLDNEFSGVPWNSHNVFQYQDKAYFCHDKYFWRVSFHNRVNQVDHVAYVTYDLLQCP
Would you please state pIC50, meaning minus log10 of the concentration in mol/L, as a bare number?

>  <Chemical structure>
CCO[C@H]1CC[C@@](CS)(C(=O)N[C@@H](Cc2ccc(O)cc2)C(=O)Nc2ccccc2)CC1

>  <pIC50>
7.85

$$$$
>  <Chemical structure>
CCO[C@H]1CC[C@@](CS)(C(=O)N[C@@H](Cc2ccc(Cl)cc2)C(=O)Nc2ccccc2)CC1

>  <pIC50>
7.18

$$$$
>  <Chemical structure>
CCO[C@H]1CC[C@@](CS)(C(=O)N[C@@H](Cc2ccccc2)C(=O)NC2CCCCC2)CC1

>  <pIC50>
7.10

$$$$

Consider the additional compound presented here.
// query Recall the reported pIC50 of `CCO[C@H]1CC[C@@](CS)(C(=O)N[C@@H](Cc2cccs2)C(=O)Nc2ccccc2)CC1` on Matrix metalloproteinase-9 (Rattus norvegicus, UniProt P50282) and write it down.
// result 7.38

====

Molecular target: Interstitial collagenase (Homo sapiens)
Sequence (P03956 whole entry): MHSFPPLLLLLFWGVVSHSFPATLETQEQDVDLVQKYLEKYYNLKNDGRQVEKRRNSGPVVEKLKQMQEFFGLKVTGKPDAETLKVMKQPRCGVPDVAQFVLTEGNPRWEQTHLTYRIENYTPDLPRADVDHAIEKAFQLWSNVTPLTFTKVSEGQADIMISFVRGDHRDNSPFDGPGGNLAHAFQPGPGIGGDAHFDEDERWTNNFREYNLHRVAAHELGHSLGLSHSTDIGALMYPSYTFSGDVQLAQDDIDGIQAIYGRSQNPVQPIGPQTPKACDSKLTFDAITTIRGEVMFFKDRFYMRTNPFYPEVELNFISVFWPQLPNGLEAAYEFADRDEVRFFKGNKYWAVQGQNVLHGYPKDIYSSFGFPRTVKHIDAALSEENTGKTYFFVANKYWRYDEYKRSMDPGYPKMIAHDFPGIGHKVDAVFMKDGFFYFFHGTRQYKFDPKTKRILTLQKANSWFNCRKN
Assay: Inhibition of matrix metalloprotease 1 (MMP 1)
Assay endpoint: IC50
Enter the number, and then the unit.

// query Could you please provide reported IC50 for `CCO[C@H]1CC[C@@](CS)(C(=O)N[C@@H](Cc2ccc(OC)cc2)C(=O)Nc2ccccc2)CC1` ? Thanks!
// result 1060 nM

====

log10 of IC50 for assorted compounds
Biological target: UniProt:P03956
Assay: In vitro inhibitory activity against matrix metalloprotease 1
Each number you see is log10 of IC50, and the unit inside the log is µM.

Worked examples follow.
>  <Compound>
CCO[C@H]1CC[C@@](CS)(C(=O)N[C@@H](Cc2ccccc2)C(=O)NC2CCCC2)CC1

>  <log10 of IC50>
-0.25

$$$$
>  <Compound>
CCO[C@H]1CC[C@@](CS)(C(=O)N[C@@H](Cc2ccccc2)C(=O)NC(C)C)CC1

>  <log10 of IC50>
-0.17

$$$$
>  <Compound>
CCO[C@H]1CC[C@@](CS)(C(=O)N[C@@H](Cc2ccccc2)C(=O)Nc2ccccc2)CC1 (stereo in doubt; 13)

>  <log10 of IC50>
0.09

$$$$
>  <Compound>
CCO[C@H]1CC[C@@](CS)(C(=O)N[C@@H](Cc2ccccc2)C(=O)NCc2ccccc2)CC1

>  <log10 of IC50>
-0.08

$$$$
>  <Compound>
CNC(=O)[C@H](Cc1ccccc1)NC(=O)[C@]1(CS)CC[C@H](C(F)(F)F)CC1

>  <log10 of IC50>
-0.17

$$$$
>  <Compound>
CCO[C@H]1CC[C@@](CS)(C(=O)N[C@@H](Cc2ccc(O)cc2)C(=O)Nc2ccccc2)CC1

>  <log10 of IC50>
-0.13

$$$$

// query Could you please provide reported log10 of IC50 for `CCO[C@H]1CC[C@@](CS)(C(=O)N[C@@H](Cc2cccs2)C(=O)Nc2ccccc2)CC1` ? Thanks!
// result -0.02

// query Could you please provide reported log10 of IC50 for `CCO[C@H]1CC[C@@](CS)(C(=O)N[C@@H](Cc2ccc(F)cc2)C(=O)Nc2ccccc2)CC1` ? Thanks!
// result 0.80

// query Could you please provide reported log10 of IC50 for `CCOc1ccc(C[C@H](NC(=O)[C@]2(CS)CC[C@H](OCC)CC2)C(=O)Nc2ccccc2)cc1` ? Thanks!
// result 0.51

// query Could you please provide reported log10 of IC50 for `CNC(=O)[C@H](Cc1ccccc1)NC(=O)C1(CS)CCCCC1` ? Thanks!
// result 0.70

// query Could you please provide reported log10 of IC50 for `CCO[C@H]1CC[C@@](CS)(C(=O)N[C@@H](Cc2ccc(Cl)cc2)C(=O)Nc2ccccc2)CC1` ? Thanks!
// result 0.29

// query Could you please provide reported log10 of IC50 for `CCO[C@H]1CC[C@@](CS)(C(=O)N[C@@H](Cc2ccccc2)C(=O)Nc2ccc(N(C)C)cc2)CC1` ? Thanks!
// result 0.12

// query Could you please provide reported log10 of IC50 for `CCO[C@H]1CC[C@@](CS)(C(=O)N[C@@H](Cc2ccccc2)C(=O)Nc2cccnc2)CC1` ? Thanks!
// result -0.87

// query Could you please provide reported log10 of IC50 for `CCO[C@H]1CC[C@@](CS)(C(=O)N[C@@H](Cc2ccccc2)C(=O)Nc2ccc(F)cc2)CC1` ? Thanks!
// result 0.33

// query Could you please provide reported log10 of IC50 for `CNC(=O)[C@H](Cc1ccccc1)NC(=O)[C@]1(CS)CC[C@H](OC)CC1` ? Thanks!
// result -0.96
